- TGT: CYP2C9 (Homo sapiens)
- Sequence (P11712 whole entry): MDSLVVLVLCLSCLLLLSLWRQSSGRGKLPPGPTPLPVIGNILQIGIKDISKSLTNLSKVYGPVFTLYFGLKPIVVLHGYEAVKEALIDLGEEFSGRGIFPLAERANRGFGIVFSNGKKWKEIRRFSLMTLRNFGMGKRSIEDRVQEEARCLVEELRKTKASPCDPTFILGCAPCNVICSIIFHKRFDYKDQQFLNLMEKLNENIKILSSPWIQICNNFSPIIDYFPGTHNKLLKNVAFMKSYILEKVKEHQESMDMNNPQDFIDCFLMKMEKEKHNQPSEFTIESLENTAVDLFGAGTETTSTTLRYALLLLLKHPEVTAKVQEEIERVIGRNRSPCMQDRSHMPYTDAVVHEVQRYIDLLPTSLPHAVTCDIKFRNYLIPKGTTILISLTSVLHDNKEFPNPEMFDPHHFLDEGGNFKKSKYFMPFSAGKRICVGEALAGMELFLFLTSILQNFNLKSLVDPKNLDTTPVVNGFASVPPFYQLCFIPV
- PROTOCOL_SUMMARY: CYP enzyme inhibition in pooled human liver microsomes (diclofenac substrate)
- CONDITIONS: human, pooled human liver microsomes, pH 7.4
VALUE_KIND: activity at 15 min, 10 µM (%)
# number only, unit % dropped from output

Per the records, this compound ( CC(=O)N1CCN(c2ccc(OCC3COC(Cn4ccnc4)(c4ccc(Cl)cc4Cl)O3)cc2)CC1 (stereo not shown) [Ketoconazole, ketoconazole, reference compound] ) has activity at 15 min, 10 µM equal to 98

====

- PROTOCOL_SUMMARY: Plasma stability assay
- Assay type: in vitro ADME, human
- CONDITIONS: human, plasma (100%, sodium citrate); 37 °C, 30 min; read-out: % Remaining compound, Human plasma 30 min
VALUE_KIND: remaining at 0.5 h, 10 μM

// remaining at 0.5 h, 10 μM lookup, compound = "CCOC(=O)[C@H](CCc1ccccc1)N[C@@H](C)C(=O)N1CCC[C@H]1C(=O)O" , result: > 100%

====

- PROTOCOL_SUMMARY: Plasma stability assay
- Format: in vitro ADME, rat
- CONDITIONS: rat, plasma (100%, sodium citrate); 37 °C, 120 min; read-out: % Remaining compound, Rat plasma 120 min
VALUE_KIND: remaining at 2 h, 10 μM

remaining at 2 h, 10 μM measured on "CCOC(=O)[C@H](CCc1ccccc1)N[C@@H](C)C(=O)N1CCC[C@H]1C(=O)O" = 1.4%

Item: "CCN(CC)CCOC(=O)c1ccc(N)cc1" | remaining at 2 h, 10 μM: 45.2%

====

- PROTOCOL_SUMMARY: Plasma protein binding, Rapid Equilibrium Dialysis (RED)
- Assay type: in vitro ADME, human
- CONDITIONS: human, plasma (100%, sodium citrate), pH 7.4, 37 °C, read-out: Plasma free fraction (% Free), Human
VALUE_KIND: fraction unbound at 4 h, 10 μM

Lab note: CC(=O)CC(c1ccccc1)c1c(O)c2ccccc2oc1=O (centres unmarked) [Warfarin] gave fraction unbound at 4 h, 10 μM of 0.006

C[C@@H]1C[C@H]2[C@@H]3CCC4=CC(=O)C=C[C@]4(C)[C@@]3(F)[C@@H](O)C[C@]2(C)[C@@]1(O)C(=O)CO [Dexamethasone] has a reported fraction unbound at 4 h, 10 μM of 0.359

====

Provide the reported remaining at 0.5 h, 10 μM of each item.
- PROTOCOL_SUMMARY: Plasma stability assay
- Assay type: in vitro ADME, rat
- CONDITIONS: rat, plasma (100%, sodium citrate); 37 °C, 30 min; read-out: % Remaining compound, Rat plasma 30 min
Express the result in % but write the number alone.

Just so you know, measured remaining at 0.5 h, 10 μM for "CCOC(=O)[C@H](CCc1ccccc1)N[C@@H](C)C(=O)N1CCC[C@H]1C(=O)O" came out at 34.5

// recorded remaining at 0.5 h, 10 μM for "CCN(CC)CCOC(=O)c1ccc(N)cc1" : 85.2

====

- PROTOCOL_SUMMARY: Plasma stability assay
- Type: in vitro ADME, mouse
- CONDITIONS: mouse, plasma (100%, sodium citrate); 37 °C, 120 min; read-out: % Remaining compound, Mouse plasma 120 min
VALUE_KIND: remaining at 2 h, 10 μM (%)
Numbers only; they are read as %.

Looking up "CCOC(=O)[C@H](CCc1ccccc1)N[C@@H](C)C(=O)N1CCC[C@H]1C(=O)O" , I see its remaining at 2 h, 10 μM listed as 26.3

Data provenance: paper PMC12680861
